# Assay Target: sGC enzyme (Homo sapiens, UniProt Q02153)
# Construct: incorporated into these cells detect cGMP formed by the compounds stimulating the sGC enzyme
# Procedure Text: cGMP GloSensor cell-based assay, 384-well format
# Measurement Parameters: HEK293 cells expressing GloSensor 40F cGMP; 10 μM DETA-NONOate; 55 min incubation; normalized to high control Compound Y (30 μM); read-out: Glo-sGC Absolute EC50
Experimental Readout: EC50

| Molecule | Result |
| --- | --- |
| OC(CNc1nc(-c2cn3ccnc3c(Cc3ccccc3F)n2)ncc1F)(C(F)(F)F)C(F)(F)F | ≤ 0.1 µM |
| NC(=O)[C@](O)(CNc1nc(-c2cn3ccnc3c(Cc3cc(F)ccc3F)n2)ncc1F)C(F)(F)F | ≤ 0.1 µM |
| OC(CNc1nc(-c2cn3ncnc3c(Cc3ccccc3F)n2)ncc1F)(C(F)(F)F)C(F)(F)F | 0.1 to 1 µM |
| OC(CNc1nc(-c2cn3ccnc3c(Cc3ccccc3F)n2)ncc1Cl)C(F)(F)F (racemic) | 0.1 to 1 µM |
| NC(=O)[C@](O)(CNc1nc(-c2cn3ncnc3c(Cc3ccccc3F)n2)ncc1F)C(F)(F)F | 0.1 to 1 µM |
| O=P([O-])([O-])OC(CNc1nc(-c2cn3ccnc3c(Cc3ccccc3F)n2)ncc1F)(C(F)(F)F)C(F)(F)F.[Na+].[Na+] | 1 to 30 µM |
| Cc1c(F)cc(Cc2nc(-c3ncc(Cl)c(NCC(O)(C(F)(F)F)C(F)(F)F)n3)cn3ccnc23)cc1F | 1 to 30 µM |

----------
# Assay Target: sGC enzyme (Homo sapiens, UniProt Q02153)
# Construct: incorporated into these cells detect cGMP formed by the compounds stimulating the sGC enzyme
# Sequence (Q02153 1-619): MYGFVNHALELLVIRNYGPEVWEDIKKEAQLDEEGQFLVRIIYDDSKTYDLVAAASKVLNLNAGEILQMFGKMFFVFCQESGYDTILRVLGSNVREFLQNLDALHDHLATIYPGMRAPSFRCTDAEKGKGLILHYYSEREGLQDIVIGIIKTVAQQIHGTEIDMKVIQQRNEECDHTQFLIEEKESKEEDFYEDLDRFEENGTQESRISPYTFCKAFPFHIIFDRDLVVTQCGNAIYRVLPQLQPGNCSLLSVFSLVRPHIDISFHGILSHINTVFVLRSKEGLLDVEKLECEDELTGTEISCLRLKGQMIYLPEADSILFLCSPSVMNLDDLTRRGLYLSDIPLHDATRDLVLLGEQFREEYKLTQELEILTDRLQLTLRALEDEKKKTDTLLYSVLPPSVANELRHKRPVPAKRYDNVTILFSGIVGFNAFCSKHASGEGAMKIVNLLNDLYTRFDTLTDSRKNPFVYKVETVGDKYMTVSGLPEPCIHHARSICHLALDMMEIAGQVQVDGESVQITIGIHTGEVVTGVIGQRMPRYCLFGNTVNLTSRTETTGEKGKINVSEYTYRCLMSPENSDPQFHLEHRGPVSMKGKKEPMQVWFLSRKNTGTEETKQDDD
# Sequence (Q02108 1-690 partner): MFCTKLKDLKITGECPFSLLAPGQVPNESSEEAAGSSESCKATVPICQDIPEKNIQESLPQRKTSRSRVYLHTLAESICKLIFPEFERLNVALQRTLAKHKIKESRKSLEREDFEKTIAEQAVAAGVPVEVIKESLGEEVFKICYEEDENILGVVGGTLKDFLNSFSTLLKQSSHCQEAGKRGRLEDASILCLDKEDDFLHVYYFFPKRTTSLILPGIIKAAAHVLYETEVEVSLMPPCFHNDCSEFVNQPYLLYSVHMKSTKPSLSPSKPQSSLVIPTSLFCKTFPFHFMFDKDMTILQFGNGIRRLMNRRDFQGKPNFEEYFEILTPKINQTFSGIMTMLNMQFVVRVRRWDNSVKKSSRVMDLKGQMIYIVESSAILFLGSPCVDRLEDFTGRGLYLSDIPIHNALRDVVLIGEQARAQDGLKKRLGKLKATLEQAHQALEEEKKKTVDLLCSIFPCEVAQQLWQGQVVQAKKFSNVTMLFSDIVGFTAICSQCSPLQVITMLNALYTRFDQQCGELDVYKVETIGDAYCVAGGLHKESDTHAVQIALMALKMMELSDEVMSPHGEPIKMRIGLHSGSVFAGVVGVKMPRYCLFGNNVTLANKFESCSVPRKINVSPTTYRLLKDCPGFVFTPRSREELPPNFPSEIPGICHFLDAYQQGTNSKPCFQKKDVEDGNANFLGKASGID
# Procedure Text: cGMP GloSensor cell-based assay, 384-well format
# Measurement Parameters: HEK293 cells expressing GloSensor 40F cGMP; 10 μM DETA-NONOate; 55 min incubation; normalized to high control Compound Y (30 μM); read-out: Glo-sGC Absolute EC50
Experimental Readout: EC50

| Molecule | Assay Target | Result |
| --- | --- | --- |
| CC(C)(O)CNc1nc(-c2cn3c(Cl)cnc3c(Cc3ccccc3F)n2)ncc1F | sGC enzyme (Homo sapiens, UniProt Q02153) | 0.1 to 1 µM |
| NC(=O)[C@](O)(CNc1nc(-c2cn3ccnc3c(Cc3ccccc3F)n2)ncc1F)C(F)(F)F | sGC enzyme (Homo sapiens, UniProt Q02153) | ≤ 0.1 µM |
| OCCNc1ccnc(-c2cn3ccnc3c(Cc3ccccc3F)n2)n1 | sGC enzyme (Homo sapiens, UniProt Q02153) | 0.1 to 1 µM |
| N#Cc1cnc(-c2cn3ncnc3c(Cc3ccccc3F)n2)nc1NCC(O)(C(F)(F)F)C(F)(F)F | sGC enzyme (Homo sapiens, UniProt Q02153) | 0.1 to 1 µM |
| COc1cnc(-c2cn3ncnc3c(Cc3ccccc3F)n2)nc1NCC(O)C(F)(F)F (racemic) | sGC enzyme (Homo sapiens, UniProt Q02153) | 1 to 30 µM |
